Provide the reported pIC50 of each item.
- assayed system: HIV-RT (HIV reverse transcriptase)
- experimental details: Inhibitory activity against HIV-RT
pIC50: −log10 of the molar value.

Solved entries:
CC(C)[C@@H]1CC[C@]2(C(=O)O)CC[C@]3(C)[C@H](CC[C@@H]4[C@@]5(C)CC[C@H](OC(=O)CC(C)(C)C(=O)O)C(C)(C)[C@@H]5CC[C@]43C)[C@@H]12 :: < 3.77
C=C(C)[C@@H]1CC[C@]2(C(=O)O)CC[C@]3(C)[C@H](CC[C@@H]4[C@@]5(C)CC[C@H](O)C(C)(C)[C@@H]5CC[C@]43C)[C@@H]12 :: < 3.66

The record that follows has no pIC50 shown yet.
So what's the measured pIC50 for this one? C=C(C)[C@@H]1CC[C@]2(C(=O)O)CC[C@]3(C)[C@H](CC[C@@H]4[C@@]5(C)CC[C@H](OC(=O)COCC(=O)O)C(C)(C)[C@@H]5CC[C@]43C)[C@@H]12
< 3.76
